Cited source: paper PMC6858373

Test system: Clone V cells
METHOD_SUMMARY: CellTiter Blue (CTB) cell viability counter-screen
ASSAY_CONTEXT: CC_NCI screening; CTB cell viability; normalized to on-plate 0.3% DMSO controls
For each record, write down the corresponding Toxicity Assay Z-score.

Request: Tell me Toxicity Assay Z-score reported for C#CCC(Cc1cnc2nc(N)nc(N)c2n1)c1ccc(C(=O)N[C@@H](CCC(=O)O)C(=O)O)cc1 (stereo partly shown) [Pralatrexate]
Result: -0.47

Request: Tell me Toxicity Assay Z-score reported for Cc1c(NC(=O)OC[C@@H]2COCCN2)cn2ncnc(Nc3ccc4c(cnn4Cc4cccc(F)c4)c3)c12 [BMS-599626]
Result: 0.27

Request: Tell me Toxicity Assay Z-score reported for C[C@]1(c2nc3c(C(N)=O)cccc3[nH]2)CCCN1 [ABT-888]
Result: 0.98

Request: Tell me Toxicity Assay Z-score reported for CO[C@H]1C[C@@H]2CC[C@@H](C)[C@@](O)(O2)C(=O)C(=O)N2CCCC[C@H]2C(=O)O[C@H]([C@H](C)C[C@@H]2CC[C@@H](OCCO)[C@H](OC)C2)CC(=O)[C@H](C)/C=C(\C)[C@@H](O)[C@@H](OC)C(=O)[C@H](C)C[C@H](C)/C=C/C=C/C=C/1C [Everolimus]
Result: -1.23

Request: Tell me Toxicity Assay Z-score reported for CO[C@H]1C(=O)[C@]2(C)[C@@H](OC)C[C@H]3OC[C@@]3(OC(C)=O)[C@H]2[C@H](OC(=O)c2ccccc2)[C@]2(O)C[C@H](OC(=O)[C@H](O)[C@@H](NC(=O)OC(C)(C)C)c3ccccc3)C(C)=C1C2(C)C [Cabazitaxel]
Result: -2.50

Request: Tell me Toxicity Assay Z-score reported for O=P(O)(O)C(O)(Cn1ccnc1)P(=O)(O)O [Zoledronic acid]
Result: -1.52

Request: Tell me Toxicity Assay Z-score reported for Cc1ccc(F)c(NC(=O)Nc2ccc(-c3cccc4[nH]nc(N)c34)cc2)c1 [ABT-869]
Result: -1.76
